# System: Mycobacterium tuberculosis
# testProtocol: Cornell - Phenotypic assay to identify agents that inhibit growth of Mycobacterium tuberculosis
# Assay type: functional
# Parameters: scale not given: direction of the effect not stated beside the values
# conditionNotes: 10 mM as filed; unlikely as a test dose
About 900 (1.7%) of roughly 53,000 compounds showed an effect of 50% or more. This is one part of a sample in which strong results are shown more often than they occur.
endpointName: Percent Effect (%)
Unit % implied. Number only.

Please look up its Percent Effect: CCn1ncnc1C1CC(=O)NCc2nc(N3CCOCC3)sc21 (stereo unspecified)
3.2

Try the compound COc1cccc(C2CC(=O)Nc3nc(N4CCOCC4)sc32)c1OC (stereo unspecified)
84.05

Try the compound Cc1cccc(CN2C[C@@H]3CN(C(=O)C4CCOC4)C[C@@H]3C2=O)c1 (stereo partly specified)
4.733

Try the compound CNc1nc2c(s1)C(c1ccc(Cl)cc1Cl)CC(=O)N2 (stereo unspecified)
15.33

Try the compound Cc1ccc(OCCC(=O)N2CCN(c3cnccn3)CC2)cc1C
39.73

Try the compound CCc1cc(N(C)Cc2ccno2)n2nc(C)c(C)c2n1
28.15

---

# Test system: Mycobacterium tuberculosis
# testProtocol: Cornell - Phenotypic assay to identify agents that inhibit growth of Mycobacterium tuberculosis
# Type: functional
# Parameters: scale not given: direction of the effect not stated beside the values
# conditionNotes: 10 mM as filed; unlikely as a test dose
The campaign covered roughly 53,000 compounds. About 900 (1.7%) showed an effect of 50% or more. This is one part of a sample in which strong results are shown more often than they occur.
Assignment: determine reported Percent Effect for the given molecules.
The reply should consist of the numeric value with the unit placed after it.

Request - read-out Percent Effect | tested on Mycobacterium tuberculosis | molecule Cc1csc(CN2C[C@@H]3COC[C@]3(C(=O)NCc3ccco3)C2)n1
99.79%

Try the molecule Cc1ncsc1CN1C[C@@H]2COC[C@]2(C(=O)NCc2ccccn2)C1.O=C(O)C(F)(F)F.O=C(O)C(F)(F)F
34.64%

Try the molecule CC(C)(C)n1cc(NC(=O)C2CN(Cc3ccccc3)CCO2)cn1 (stereo not given)
19.34%

Try the molecule Cc1ncc2c(n1)C1(CCN(C(=O)C(C)C)CC1)OCC2.Cl
54.97%

Try the molecule Cc1cnc(N2CCOC3(CCCN(C(=O)C(C)C)C3)C2)nc1 (stereo not given)
8.771%

Try the molecule Cc1ncc(C(=O)N2CC(C(=O)N3CCOCC3)C2)c(C)n1
-7.514%

Try the molecule Cc1csc(CNC(=O)N2CCN(Cc3ccco3)CC2)n1
5.266%

Try the molecule CCc1nn(-c2cc(Oc3cccc(C)c3)nc(C)n2)c(N)c1C#N
11.01%

Try the molecule CSc1[nH]c(=O)c(C(=O)N2CCCC2c2cccs2)cc1C#N (stereo not given)
17.36%

Try the molecule Cc1nc(-c2ccc(CO)cc2)cc(C2CCNCC2)n1.Cl
12.1%

---

Assignment: determine reported Percent Effect for the given compounds.
# Test system: Mycobacterium tuberculosis
# testProtocol: Cornell - Phenotypic assay to identify agents that inhibit growth of Mycobacterium tuberculosis
# Type: functional
# Parameters: scale not given: direction of the effect not stated beside the values
# conditionNotes: 10 mM as filed; unlikely as a test dose
Hit rate of the full screen: of about 53,000 compounds, about 900 (1.7%) showed an effect of 50% or more. Only a selection was taken, and strong results are over-represented in it overall.
Unit % implied. Number only.

Please look up its Percent Effect: O=C(c1ccco1)N1CCC(n2nc(-c3ccco3)ccc2=O)CC1
11.6

Try the compound COc1cccc(CNC(=O)CN2CCCC(Cn3cncn3)C2)c1 (stereo unspecified)
-43.6

Try the compound COC(=O)c1ccccc1S(=O)(=O)NC(=O)c1cccc2c1OCCO2
-3.436

Try the compound COc1ccc(-c2nc(CN3CCCC(OC)C3)c(C)o2)c(F)c1 (stereo unspecified)
56.05

Try the compound COC1(CNC(=O)c2ccoc2)CCSC1 (stereo unspecified)
-5.057

Try the compound COCCN1CCC(CNC(=O)c2ccnc(-n3ccnc3)c2)CC1
-23.45

---

# Tested on: Mycobacterium tuberculosis
# testProtocol: Cornell - Phenotypic assay to identify agents that inhibit growth of Mycobacterium tuberculosis
# Assay type: functional
# Set-up: scale not given: direction of the effect not stated beside the values
# conditionNotes: 10 mM as filed; unlikely as a test dose
Hit rate of the full screen: of about 53,000 compounds, about 900 (1.7%) showed an effect of 50% or more. The full list was thinned out, with strong results kept by preference.
# Percent Effect binned as lo: < 20%; mid: ≥ 20% and < 40%; hi: ≥ 40%

Please report the category associated with O=C(CCn1ccc(=O)[nH]c1=O)N1CCC(Oc2ncccc2Cl)CC1 , nothing else.
mid

Try the compound Cc1cccc2c1cnn2CCC(=O)NCc1csc(C2CC2)n1
mid

Try the compound Cn1cc(CN2CCOC3(CCCN(c4cccc(F)c4)C3)C2)cn1.O=C(O)C(F)(F)F.O=C(O)C(F)(F)F (stereo not given)
lo

Try the compound Cc1cccc(OC2CCN(C(=O)Cn3ccc4ccccc43)CC2)n1
hi

Try the compound COC1CCN(C(=O)Cn2ccc3ccccc32)CC1
lo

Try the compound Fc1cccc(N2CCCC3(CN(Cc4ccccn4)CCO3)C2)c1.O=C(O)C(F)(F)F.O=C(O)C(F)(F)F.O=C(O)C(F)(F)F (stereo not given)
hi

Try the compound O=C(CCC(=O)N1CCC(Oc2ncccc2Br)CC1)c1ccccc1
hi

Try the compound O=C(CCC(=O)N1CCC(OCc2cccnc2)CC1)c1ccccc1
lo

Try the compound O=C(Cn1ccc2ccccc21)N1CCC(Oc2ncccc2Br)CC1
hi

---

Assignment: determine reported Percent Effect for the given molecules.
# Tested on: Mycobacterium tuberculosis
# testProtocol: Cornell - Phenotypic assay to identify agents that inhibit growth of Mycobacterium tuberculosis
# Format: functional
# Parameters: scale not given: direction of the effect not stated beside the values
# conditionNotes: 10 mM as filed; unlikely as a test dose
Out of some 53,000 compounds screened, about 900 (1.7%) showed an effect of 50% or more. Many of the other results were omitted from the sample, so strong results are more common in it than they were.
Unit % implied. Number only.

Please look up its Percent Effect: Cc1nn(CCCNC(=O)C2CCN(S(C)(=O)=O)CC2)cc1Cl
12.8

Try the molecule OC(CN1CCC(c2ccn[nH]2)CC1)c1ccccc1F (configuration not stated)
11.88

Try the molecule O=S(=O)(NC1CCCCC12OCCO2)c1cc(Cl)cc(Cl)c1 (configuration not stated)
16.3

Try the molecule Cc1nn(CCCNC(=O)C2CCN(S(C)(=O)=O)CC2)cc1Br
34.63

Try the molecule CCc1ccc(O)c(C(=O)N2CCN(CC(=O)N(CC)CC)CC2)c1
-14.81

Try the molecule NC(=O)C1=NC2=NS(=O)(=O)c3ccccc3N2N1Cc1ccc(Cl)cc1
106.1

Try the molecule c1ccc(CN2CCC(c3nccnc3-n3ccnc3)CC2)cc1
-13.47

Try the molecule O=S(=O)(NC1CCCCC12OCCO2)c1ccc2c(c1)OCCO2 (configuration not stated)
44.93

Try the molecule COCCCNC(=O)N1CCN(C(=O)c2nsc3ccccc23)CC1
12.5

Try the molecule COc1cccc(CNC(=O)c2ccccc2-n2cnc(CN)c2)c1
-31.51

Try the molecule NC(=O)C1=NC2=NS(=O)(=O)c3ccccc3N2N1Cc1ccc(Br)cc1
106.5

Try the molecule Cc1cc2c(cc1C)OC1(C=C2)CCN(CC(=O)N2CCOCC2)CC1
44.67

Try the molecule Cc1cc2c(cc1Cl)C=CC1(CCN(CC(=O)N3CCOCC3)CC1)O2
-15.66

Try the molecule Cc1cc(NCCCNc2cccnc2)n2nc(C)c(C)c2n1
31.25

Try the molecule COc1cccc(CN(C)Cc2c(C)noc2C)c1OC
-9.272

Try the molecule CCc1cnc(N2C[C@H]3C[C@H](C(=O)N4CCOCC4)[C@@H](C2)O3)nc1.O=C(O)C(F)(F)F
10.32

Try the molecule Cc1nc(CN2C(=O)CC[C@@H]3[C@H]2CCN3C2CCOC2)cs1.O=C(O)C(F)(F)F (some centres not stated)
9.813

Try the molecule Cc1nn(C)cc1NC(=O)CC1CCN(C(=O)Cc2ccccc2)CC1
-9.652

Try the molecule Cc1cccc(NC(=O)N2CCC3(CCC(C(=O)N(C)C)O3)CC2)c1 (configuration not stated)
-3.897

Try the molecule CN1C(=O)C2(CC(=O)Nc3c2cnn3C(C)(C)C)c2ccccc21 (configuration not stated)
16.17

Try the molecule COc1cccc(CN(Cc2ccco2)Cc2[nH]cnc2C)c1.O=C(O)CC(O)(CC(=O)O)C(=O)O
-15.02

Try the molecule Cc1c(CN2CCC(C(=O)O)(n3cccn3)CC2)oc2ccccc12
-1.551

---

# Test system: Mycobacterium tuberculosis
# testProtocol: Cornell - Phenotypic assay to identify agents that inhibit growth of Mycobacterium tuberculosis
# Type: functional
# Design: scale not given: direction of the effect not stated beside the values
# conditionNotes: 10 mM as filed; unlikely as a test dose
The campaign covered roughly 53,000 compounds. About 900 (1.7%) showed an effect of 50% or more. Many of the other results were omitted from the sample, so strong results are more common in it than they were.
We use 20% as the dividing line for Percent Effect: on or above the line is condition met, below is condition not met.

Does Percent Effect meet or surpass 20% for CCn1ccc(-c2cc(NCCCOc3cccc(C)c3)nc(C)n2)n1 ?
condition met

Try the compound CCn1ccc(-c2cc(NCCCOc3ccccc3C)nc(C)n2)n1
condition met

Try the compound COCC(=O)N1C[C@@H]2OCCN(Cc3c(C)noc3C)[C@@H]2C1
condition not met

Try the compound Cc1noc(C)c1CN1CCO[C@H]2CNC[C@H]21.Cl.Cl
condition met

Try the compound COc1ccc(-n2cc(CNC(=O)c3ccc[nH]3)nn2)cc1
condition not met

Try the compound CCS(=O)(=O)NCC(=O)NC(c1cc(C)sc1C)C(C)C (stereo unspecified)
condition met

Try the compound CNc1ccnc(NCC(=O)Nc2cc(C)ccc2OC)n1
condition not met

Try the compound CCS(=O)(=O)CCN1CCC(N(C)Cc2noc(C(C)C)n2)C1 (stereo unspecified)
condition not met

Try the compound O=C(Cc1c[nH]c2ccccc12)N1CCN(C(=O)c2ccoc2)CC1
condition not met

Try the compound COc1ccccc1OCCNCCn1cccn1
condition not met

Try the compound CC(=O)Nc1ccc(Oc2ccc3c(c2)OCO3)nc1
condition not met

The values you see were collected from ChEMBL document CHEMBL3988442.
